molecular target: T1, LILRA2; experiment: flow cytometry, reporter cells
T1 construct: also called LILRA2 reporter cells; not shown: transmembrane/intracellular domains of PILRb, the display part of the chimeric reporter receptor
T1 sequence (chain, as listed by the source limits assumed): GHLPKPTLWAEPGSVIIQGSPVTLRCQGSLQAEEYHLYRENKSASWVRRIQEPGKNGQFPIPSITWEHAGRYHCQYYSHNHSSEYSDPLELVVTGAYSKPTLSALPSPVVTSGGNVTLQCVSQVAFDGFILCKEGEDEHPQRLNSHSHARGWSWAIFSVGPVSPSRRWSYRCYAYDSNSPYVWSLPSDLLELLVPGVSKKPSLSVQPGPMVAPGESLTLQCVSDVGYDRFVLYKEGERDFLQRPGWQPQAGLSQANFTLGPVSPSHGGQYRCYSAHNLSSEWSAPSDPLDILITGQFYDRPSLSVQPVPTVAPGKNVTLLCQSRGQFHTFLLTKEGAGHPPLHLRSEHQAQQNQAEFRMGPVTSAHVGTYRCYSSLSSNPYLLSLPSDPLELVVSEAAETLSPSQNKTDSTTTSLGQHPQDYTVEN
measurement-type: MFI
Give the value as a plain number.

Item under review: B2-17 (antibody, V domains shown, also called B2-17_HC; B2-17_LC) VH: EVQLLDSGPRLLKPSETLSLTCGVSGVSTSSTHWWSWVRQTPGKGLEWIGEILHNGNTNSNPSLKSRVSMSIDKSRNQFSLQLKSMTAADTAVYYCASASPNWGASGAFDAWAQGTMVTVSS VL: QSVLTQPPSASATPGQRVTISCSGSSSNIGSNPVNWYQQVPGMAPELVMYSDNQRPSGVPDRFSGSNSGTSASLAISGLQSEDEADYYCSTWDDSLNGLVFGTGTKVTVL . Reported MFI?
10
